ASSAY SYSTEM: maltase (α-(1-4) glucosidase) from Saccharomyces
Construct: commercial enzyme, Sigma-Aldrich Japan
ASSAY PROCEDURE: glucose release from maltose, capillary electrophoresis of PMP derivatives
EXPERIMENTAL SETUP: substrate maltose; citric buffer pH 6.8 or acetate buffer pH 4.5 (text does not assign clearly), 15 min
ASSAY READOUT: pIC50
Recall that pIC50 is obtained by taking minus log10 of the concentration measured in molar.

Missing value: pIC50, maltase (α-(1-4) glucosidase) from Saccharomyces, entry OC[C@H]1OC(O)[C@H](O)[C@@H](O)[C@@H]1OC[C@H]1OC(O)(CO)[C@@H](O)[C@@H]1O (stereo partly shown) [maplebiose1] . Fill in?
2.76

Reference source for all entries: paper PMC6834145
